Test system: OCI-AML2;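 further: after 48 h exposure read by CellTiter-Glo luminescence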
experiment_description: cell viability relative to vehicle control; higher = less cytotoxic
recorded_conditions: 10 µM; SRSF2 genotype: wt/wt
Counter-ions that a name gives are not always drawn.
Overview of recorded cell viability for various molecules
Answer with a number only, understood to be in %.

Example results:
O=C(O)c1ccc(O)c(O)c1	104
COc1cc2c(Oc3ccc4[nH]c(C)cc4c3F)ccnc2cc1OCC1(N)CC1 [Anlotinib (AL3818) dihydrochloride]	17.3
Cc1ccc(Nc2ncc3c(n2)N(C)C(=O)N(c2cc(NC(=O)c4cccc(C(F)(F)F)c4)ccc2C)C3)cn1	35.2

What measured cell viability goes with N#C/C(=C1/SC[C@@H](c2ccc(Cl)cc2Cl)S1)n1ccnc1 ?
83.5

What cell viability value was documented for this molecule, CC(NC(=O)C(O)c1cc(F)cc(F)c1)C(=O)NC1C(=O)N(C)c2ccccc2-c2ccccc21 (centres undefined) ?
96.8

Look up cell viability: CCOC(=O)c1c2c3c(cccc3[nH]c1=O)C(=O)c1ccccc1-2
101

Suppose we examine the molecule CNC(=O)c1nn(C)c2c1C(C)(C)Cc1cnc(Nc3ccc(N4CCN(C)CC4)cc3)nc1-2 ; what cell viability value has been reported?
19.4

So what does the record say about cell viability for CCN(CC)CCOC(=O)c1ccc(N)cc1 [Procaine (Novocaine) HCl] ?
110

# get_value(readout='cell viability', item= Cc1cc(Nc2nc(N[C@@H](C)c3ccc(F)cc3)c(C#N)cc2F)n[nH]1 )
15.8

The reported measurements were obtained from the supplement of paper PMC10981050.
